target: T1, soluble human PD-1 (the extracellular domain of human PD-1 fused to a His tag) (human, UniProt Q15116 25-170); test: Biacore, mAb captured on Protein A, analyte shPD-1 His
T1 construct: also called shPD-1 His; shPD-1-His; not shown: His tag
T1 sequence (Q15116 25-170): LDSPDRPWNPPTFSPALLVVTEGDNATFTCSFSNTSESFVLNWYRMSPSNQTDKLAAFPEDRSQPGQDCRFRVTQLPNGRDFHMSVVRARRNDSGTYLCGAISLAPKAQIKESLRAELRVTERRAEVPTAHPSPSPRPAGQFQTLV
pKd: −log10 of the molar value.
// values below are reported pKd

{"binder": "PD-1 mAb 2 (antibody, V domains shown, Murine monoclonal antibody) VH: DVQLVESGGGLVQPGGSRKLSCAASGFVFSSFGMHWVRQAPEKGLEWVAYISSGSMSISYADTVKGRFTVTRDNAKNTLFLQMTSLRSEDTAIYYCASLSDYFDYWGQGTTLTVSS VL: DVVMSQTPLSLPVSLGDQASISCRSSQSLVHSTGNTYLHWYLQKPGQSPKLLIYRVSNRFSGVPDRFSGSGSGTDFTLKISRVEAEDLGVFFCSQTTHVPWTFGGGTKLEIK", "pKd": 7.99}
{"binder": "hPD-1 mAb 7 (1.2), constant region not named where tested (antibody, V domains shown) VH: QVQLVQSGAEVKKPGASVKVSCKASGYSFTSYWMNWVRQAPGQGLEWIGVIHPSDSETWLDQKFKDRVTITVDKSTSTAYMELSSLRSEDTAVYYCAREHYGTSPFAYWGQGTLVTVSS VL: EIVLTQSPATLSLSPGERATLSCRASESVDNYGMSFMNWFQQKPGQPPKLLIHAASNQGSGVPSRFSGSGSGTDFTLTISSLEPEDFAVYFCQQSKEVPYTFGGGTKVEIK", "pKd": 9.41}
